# IC50, HEK293 ST2 NFkB cyno IL-33 listing for each entry below
Biological target: T1, cynomolgus monkey IL-33 (cys mut) (cynomolgus monkey)
T1 chain: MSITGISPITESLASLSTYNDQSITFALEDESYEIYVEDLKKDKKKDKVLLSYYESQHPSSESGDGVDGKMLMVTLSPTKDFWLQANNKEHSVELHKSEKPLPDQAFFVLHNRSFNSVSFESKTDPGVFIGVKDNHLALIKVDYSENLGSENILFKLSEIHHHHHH
Experiment: cell-based or functional assay
Give just the numeric value; nM need not be written.

Consider the reported IC50, HEK293 ST2 NFkB cyno IL-33 for these binders:
- Binder: "IL33-186 (antibody, human IgG1, kappa, V domains shown) VH: EVQLVESGGGLVQPGGSLRLSCAASGFTFSSYWMYWVRQAPGKGLEWVAAITPNGGETYYPESVKGRFTISRDNAKNSLYLQMNSLRAEDTAVYYCARGHYYYTSYSLGYWGQGTLVTVSS VL: DIQMTQSPSSLSASVGDRVTITCKASQNINKHLDWYQQKPGKAPKLLIYFTNNLQTGVPSRFSGSGSGTDFTLTISSLQPEDFATYYCFQYNQGWTFGGGTKVEIKR"
  Value units: "nM"
  IC50, HEK293 ST2 NFkB cyno IL-33: 0.144
- Binder: "IL33-187 (antibody, human IgG1, kappa, V domains shown) VH: EVQLVESGGGLVQPGGSLRLSCAASGFTFSSYWMYWVRQAPGKGLEWVAAITPNAGETYYPDSVKGRFTISRDNAKNSLYLQMNSLRAEDTAVYYCARGHYYYTSYSLGYWGQGTLVTVSS VL: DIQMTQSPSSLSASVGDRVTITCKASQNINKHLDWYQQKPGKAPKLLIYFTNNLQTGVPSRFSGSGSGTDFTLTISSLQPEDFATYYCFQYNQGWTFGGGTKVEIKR"
  Value units: "nM"
  IC50, HEK293 ST2 NFkB cyno IL-33: 0.282

Exercise: What value of IC50, HEK293 ST2 NFkB cyno IL-33 has been reported for the following binder? IL33-157 (antibody, human IgG1, kappa, V domains shown) VH: EVQLVESGGGLVQPGGSLRLSCAASGFTFSSYWMYWVRQAPGKGLEWVAAITPNAGEDYYPDSVKGRFTISRDNAKNSLYLQMNSLRAEDTAVYYCARGHYYYTSYSLGYWGQGTLVTVSS VL: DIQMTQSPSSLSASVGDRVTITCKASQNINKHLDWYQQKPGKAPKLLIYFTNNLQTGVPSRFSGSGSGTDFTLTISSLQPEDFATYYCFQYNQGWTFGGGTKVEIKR
Key: 0.161
